- Species: Rattus norvegicus
- procedure.details: Open TG-GATES - Regimen: Daily Repeat
- Assay type: toxicity, organism-based, Sprague-Dawley
- Design: regimen Daily Repeat, gender Male, age 6 weeks
- condition.parameters: in vivo, po, 0 mg/kg, […], tissue Blood, route gavage, dose level Control, time 14 day
property.label: RBC (x10_4/ul)
Just the number in x10_4/ul, nothing appended.

Below: 5 molecules and their reported RBC.
                                   molecule  unit_info  measured_number
0   CCc1oc2ccccc2c1C(=O)c1cc(Br)c(O)c(Br)c1   x10_4/ul            703.4
1  CC(C)N(CCC(C(N)=O)(c1ccccc1)c1ccccn1)C(C)C (stereo unspecified) [DISOPYRAMIDE]   x10_4/ul              715
2  CN(C)CCC=C1c2ccccc2COc2ccccc21 [DOXEPIN]   x10_4/ul            657.4
3                         CN(C)C(=N)N=C(N)N   x10_4/ul              674
4  CCCCc1oc2ccccc2c1C(=O)c1cc(I)c(OCCN(CC)CC)c(I)c1   x10_4/ul            689.2

(Q) For CC1=C(CC(=O)O)c2cc(F)ccc2/C1=C\c1ccc([S+](C)[O-])cc1 (stereo unspecified) , what is its reported RBC?
(A) 725.2

(Q) // same read-out, input: ClC(Cl)(Cl)Cl [CARBON TETRACHLORIDE]
(A) 728

(Q) Can you check OCCOCCN1CCN(C(c2ccccc2)c2ccc(Cl)cc2)CC1 (stereo unspecified) [HYDROXYZINE] next?
(A) 682.2

(Q) Next entry: O=NN(CCCl)C(=O)NC1CCCCC1
(A) 693.2

(Q) What would you report for CC[C@H]1[C@@H]2C[C@H]3[C@@H]4N(C)c5ccccc5[C@]45C[C@@H]([C@@H]2[C@H]5O)N3[C@@H]1O ?
(A) 664.2

(Q) Cool, now CCC1(c2ccccc2)C(=O)NC(=O)NC1=O
(A) 713.2

====

Quick reference: gamma-GTP of the listed items.
- Species on record: Rattus norvegicus
- procedure.details: Open TG-GATES - Regimen: Daily Repeat
- Format: toxicity, organism-based, Sprague-Dawley
- Design: regimen Daily Repeat, gender Male, age 6 weeks
- condition.parameters: in vivo, po, 0 mg/kg, […], tissue Plasma, route gavage, dose level Control, time 7 day
Give just the numeric value; IU/L need not be written.

>>> df
                                   compound  measured_number
0      ClC(Cl)(Cl)Cl [CARBON TETRACHLORIDE]              1.2
1  CCc1oc2ccccc2c1C(=O)c1cc(Br)c(O)c(Br)c1 [BENZBROMARONE]                1
2      O=NN(CCCl)C(=O)NC1CCCCC1 [LOMUSTINE]                1
3  CC[C@H]1[C@@H]2C[C@H]3[C@@H]4N(C)c5ccccc5[C@]45C[C@@H]([C@@H]2[C@H]5O)N3[C@@H]1O [AJMALINE]              1.2
4  OCCOCCN1CCN(C(c2ccccc2)c2ccc(Cl)cc2)CC1 (stereo unspecified) [HYDROXYZINE]              0.8

(Q) Using the record for CCC1(c2ccccc2)C(=O)NC(=O)NC1=O [PHENOBARBITAL] , report its gamma-GTP.
(A) 1.4

(Q) Repeat for the following compound: CCCCc1oc2ccccc2c1C(=O)c1cc(I)c(OCCN(CC)CC)c(I)c1 [AMIODARONE]
(A) 1.6

(Q) Now consider CC1=C(CC(=O)O)c2cc(F)ccc2/C1=C\c1ccc([S+](C)[O-])cc1 (stereo unspecified) .
(A) 0.8

(Q) Check CN(C)CCC=C1c2ccccc2COc2ccccc21 [DOXEPIN] too.
(A) 1.6

(Q) Then this compound: CC(C)N(CCC(C(N)=O)(c1ccccc1)c1ccccn1)C(C)C (stereo unspecified) [DISOPYRAMIDE]
(A) 2

(Q) Repeat for the following compound: CN(C)C(=N)N=C(N)N [METFORMIN]
(A) 1
